Reference for the values: patent US20230042936A1

assayTarget: CDK5/p35NCK (Homo sapiens)
Sequence (Q00535 whole entry): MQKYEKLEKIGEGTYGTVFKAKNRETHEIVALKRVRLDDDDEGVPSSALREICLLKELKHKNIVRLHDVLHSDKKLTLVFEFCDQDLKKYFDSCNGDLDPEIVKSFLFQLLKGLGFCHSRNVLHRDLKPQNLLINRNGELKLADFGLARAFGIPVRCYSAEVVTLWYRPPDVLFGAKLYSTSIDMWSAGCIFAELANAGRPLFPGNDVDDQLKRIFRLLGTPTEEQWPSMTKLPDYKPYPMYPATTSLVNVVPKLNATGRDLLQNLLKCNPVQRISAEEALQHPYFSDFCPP
Sequence (Q15078 whole entry partner): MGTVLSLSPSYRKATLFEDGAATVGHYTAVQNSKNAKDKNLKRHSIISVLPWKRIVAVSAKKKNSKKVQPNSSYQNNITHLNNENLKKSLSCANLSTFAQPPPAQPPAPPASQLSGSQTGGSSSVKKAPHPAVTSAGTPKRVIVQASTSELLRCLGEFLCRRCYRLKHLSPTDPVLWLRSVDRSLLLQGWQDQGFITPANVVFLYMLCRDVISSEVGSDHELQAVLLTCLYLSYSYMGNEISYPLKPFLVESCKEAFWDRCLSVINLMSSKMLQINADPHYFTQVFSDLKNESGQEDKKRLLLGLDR
procedureText: Kinase profiling
Format: biochemical
testContext: 10 semi-logarithmic dilutions from 50 μM, singlicate
pIC50: −log10 of the molar value.

compound: CC(=O)c1c(C)c2cnc(Nc3ccc(N4CCNCC4)cc3)nc2n([C@@H]2CC3CCC2C3)c1=O (stereo partly shown)
pIC50: 6.95
--
compound: O=c1ccc2cnc(Nc3ccc(N4CCC(OCC5(CO)COC5)CC4)cc3)nc2n1[C@@H]1CC2CCC1C2 (stereo partly shown)
pIC50: 6.59
--
compound: CC(O)CCC1CCN(c2ccc(Nc3ncc4ccc(=O)n([C@@H]5CC6CCC5C6)c4n3)cc2)CC1 (stereo partly shown)
pIC50: 5.78
--
compound: CC(=O)c1c(C)c2cnc(Nc3ccc(N4CCC(CCCO)CC4)cc3)nc2n([C@@H]2CC3CCC2C3)c1=O (stereo partly shown)
pIC50: 5.43
